The measured values listed here are drawn from ChEMBL document CHEMBL5120947.

Study target: Potassium voltage-gated channel subfamily KQT member 5 (Homo sapiens, UniProt Q9NR82)
Sequence (Q9NR82 whole entry): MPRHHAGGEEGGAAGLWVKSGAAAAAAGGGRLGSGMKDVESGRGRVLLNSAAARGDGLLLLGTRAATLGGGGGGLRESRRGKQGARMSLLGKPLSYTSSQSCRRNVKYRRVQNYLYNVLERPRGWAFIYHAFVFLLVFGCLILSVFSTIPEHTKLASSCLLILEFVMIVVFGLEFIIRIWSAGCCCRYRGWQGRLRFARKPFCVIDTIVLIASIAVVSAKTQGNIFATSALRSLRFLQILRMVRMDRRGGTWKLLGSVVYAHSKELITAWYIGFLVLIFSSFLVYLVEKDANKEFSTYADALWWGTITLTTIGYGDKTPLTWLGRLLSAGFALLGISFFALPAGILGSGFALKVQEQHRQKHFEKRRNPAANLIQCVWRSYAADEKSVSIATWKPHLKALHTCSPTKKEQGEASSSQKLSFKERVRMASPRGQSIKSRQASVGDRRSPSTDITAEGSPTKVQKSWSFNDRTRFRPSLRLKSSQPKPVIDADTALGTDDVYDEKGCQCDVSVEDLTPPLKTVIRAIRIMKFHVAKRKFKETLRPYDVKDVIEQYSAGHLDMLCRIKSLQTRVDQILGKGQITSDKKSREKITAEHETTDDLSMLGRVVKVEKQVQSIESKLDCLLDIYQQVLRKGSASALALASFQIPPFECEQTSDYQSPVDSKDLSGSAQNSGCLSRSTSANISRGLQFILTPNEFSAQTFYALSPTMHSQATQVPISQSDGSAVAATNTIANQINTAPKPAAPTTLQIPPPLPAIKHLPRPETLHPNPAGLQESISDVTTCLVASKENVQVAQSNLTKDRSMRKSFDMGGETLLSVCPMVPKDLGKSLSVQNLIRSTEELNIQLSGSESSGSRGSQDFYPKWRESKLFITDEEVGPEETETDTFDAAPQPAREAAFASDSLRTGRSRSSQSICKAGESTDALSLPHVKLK
Assay details: Agonist activity at human KCNQ5 channel expressed in CHO cells assessed as increase in outward current by patch clamp electrophysiology method
Type: cell-based
Observed property: EC50 (µM)
Dear colleague, please return just the value in µM, with no unit written.

# input compound: `Cc1ccc(CSCc2nnc(SCC(=O)Nc3ccc(Br)cc3Br)n2C)cc1` ; wanted: its EC50
4.5

====

Assay details: Lipophilicity, logD of the compound
Format: physicochemical
Assay context: octanol/water
Below, each entry is listed with its recorded logD.
Answer with a bare number; do not write a unit.

// lookup logD for `Cc1ccc(CSCc2nnc(SCC(=O)Nc3ccc(Br)cc3Br)n2C)cc1`
4.79

***
Name the recorded logD for `Cc1ccc(CSCc2nnc(SCC(=O)Nc3ccc(Br)cc3I)n2C)cc1` .
4.66

Request the reported logD associated with `Cc1ccc(CSCc2nnc(SCC(=O)Nc3ccc(Br)cc3F)n2C)cc1`
4.38

====

Study target: Potassium voltage-gated channel subfamily KQT member 4 (Homo sapiens)
Sequence (P56696 whole entry): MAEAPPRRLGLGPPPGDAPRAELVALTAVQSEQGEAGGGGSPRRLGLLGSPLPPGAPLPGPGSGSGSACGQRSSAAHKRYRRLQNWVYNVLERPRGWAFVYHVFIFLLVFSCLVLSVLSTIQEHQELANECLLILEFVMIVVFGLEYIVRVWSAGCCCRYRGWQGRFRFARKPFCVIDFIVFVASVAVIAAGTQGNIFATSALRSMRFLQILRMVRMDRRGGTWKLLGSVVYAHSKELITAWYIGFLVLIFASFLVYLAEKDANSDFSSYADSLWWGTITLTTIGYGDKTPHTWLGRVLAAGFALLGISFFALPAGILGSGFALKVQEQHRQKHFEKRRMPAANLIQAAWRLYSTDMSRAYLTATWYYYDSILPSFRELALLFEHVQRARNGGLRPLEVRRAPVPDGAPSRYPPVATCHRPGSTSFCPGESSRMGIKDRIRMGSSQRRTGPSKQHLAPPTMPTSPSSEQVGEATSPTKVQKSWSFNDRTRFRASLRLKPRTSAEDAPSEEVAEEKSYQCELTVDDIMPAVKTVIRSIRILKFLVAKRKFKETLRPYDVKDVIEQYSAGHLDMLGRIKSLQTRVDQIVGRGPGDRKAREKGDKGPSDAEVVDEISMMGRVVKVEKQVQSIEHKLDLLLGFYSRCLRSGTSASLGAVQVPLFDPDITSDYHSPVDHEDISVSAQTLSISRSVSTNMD
Assay details: Agonist activity at human KCNQ4 channel expressed in CHO cells assessed as increase in outward current by patch clamp electrophysiology method
Observed property: EC50 (µM)
Return type: number; implicit unit µM.

Notebook: pull reported EC50 for Potassium voltage-gated channel subfamily KQT member 4 (Homo sapiens), entry `Cc1ccc(CSCc2nnc(SCC(=O)Nc3ccc(Br)cc3Br)n2C)cc1`
6.4
